Data origin: patent US8906904B2

- PROCEDURE TEXT: Assessment of solubility (McIlvaine buffers, 24 h shake, UPLC-UV)
- Assay type: physicochemical
- STUDY CONDITIONS: pH 4.5, aqueous buffer, kinetic from dmso stock
ASSAY METRIC: solubility at 24 h (µg/mL)

Check out these entries, answers already filled in.
- COMPOUND: "COc1c(C(=O)O)cnn1-c1cccc(-c2cccc(C)c2OCc2ccc3c(c2)CCCN(C2CCOCC2)C3)n1"
  EXPERIMENTAL VALUE: 88
- COMPOUND: "CCOc1c(C(=O)O)cnn1-c1cccc(-c2cccc(C)c2OCc2ccc3c(c2)CCCN(C2CCCOC2)C3)n1 (stereo not shown)"
  EXPERIMENTAL VALUE: 79
- COMPOUND: "Cc1cccc(-c2cccc(-n3ncc(C(=O)O)c3OC(C)C)n2)c1OCc1ccc2c(c1)CCN(CC1CC(F)(F)C1)C2"
  EXPERIMENTAL VALUE: 81
- COMPOUND: "CCOc1c(C(=O)O)cnn1-c1cccc(-c2cccc(C)c2OCc2ccc3c(c2C)CCN(C[C@@H]2CCCCO2)CC3)n1"
  EXPERIMENTAL VALUE: 70
- COMPOUND: "COc1c(C(=O)O)cnn1-c1cccc(-c2cccc(C)c2OCc2cc3c(cc2C)CN(C2CCOCC2)C3)n1"
  EXPERIMENTAL VALUE: 150
- COMPOUND: "COc1c(C(=O)O)cnn1-c1cccc(-c2cccc(C)c2OCc2ccc3c(c2)CCN(C(C)C)C3)n1"
  EXPERIMENTAL VALUE: 84
- COMPOUND: "CCOc1c(C(=O)O)cnn1-c1cccc(-c2cccc(C)c2OCc2ccc3c(c2)CCN(C2CCOC2C)C3)n1 (stereo not shown)"
  EXPERIMENTAL VALUE: 75
- COMPOUND: "CCOc1c(C(=O)O)cnn1-c1cccc(-c2cccc(C)c2OCc2ccc3c(c2C)CCN([C@@H]2CCCOC2)C3)n1"
  EXPERIMENTAL VALUE: 77

P. COc1c(C(=O)O)cnn1-c1cccc(-c2cccc(C)c2OCc2ccc3c(c2Cl)CCN(C2CCC2)C3)n1
Q. COc1c(C(=O)O)cnn1-c1cccc(-c2cccc(C)c2OCc2ccc3c(c2)CCN(C2CCOC(C)(C)C2)C3)n1 (stereo not shown)
Returns the identifier with the smallest measured solubility at 24 h among P and Q . Return value: the label identifying the chosen record. P

###

- TESTED ON: human soluble guanylate cyclase alpha 1 and beta 1 subunits (sGC) (Homo sapiens, UniProt Q02108+Q02153)
- Sequence (Q02108 whole entry): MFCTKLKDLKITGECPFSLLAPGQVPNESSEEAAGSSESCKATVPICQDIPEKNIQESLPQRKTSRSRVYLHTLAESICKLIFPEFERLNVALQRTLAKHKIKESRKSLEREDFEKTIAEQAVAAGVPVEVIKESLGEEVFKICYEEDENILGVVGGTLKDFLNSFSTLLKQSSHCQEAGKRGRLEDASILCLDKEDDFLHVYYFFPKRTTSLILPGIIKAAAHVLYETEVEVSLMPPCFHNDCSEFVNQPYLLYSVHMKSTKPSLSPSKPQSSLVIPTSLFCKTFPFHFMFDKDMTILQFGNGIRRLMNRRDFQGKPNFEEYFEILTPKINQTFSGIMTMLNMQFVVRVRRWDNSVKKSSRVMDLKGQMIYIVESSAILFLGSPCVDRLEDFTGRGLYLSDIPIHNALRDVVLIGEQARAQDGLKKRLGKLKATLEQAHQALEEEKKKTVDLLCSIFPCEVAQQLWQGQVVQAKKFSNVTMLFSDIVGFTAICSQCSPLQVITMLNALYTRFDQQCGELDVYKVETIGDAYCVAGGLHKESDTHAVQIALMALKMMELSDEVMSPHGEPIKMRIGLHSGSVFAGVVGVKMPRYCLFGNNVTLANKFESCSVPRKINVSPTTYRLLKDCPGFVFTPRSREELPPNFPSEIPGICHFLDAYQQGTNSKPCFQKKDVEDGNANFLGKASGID
- Sequence (Q02153 whole entry): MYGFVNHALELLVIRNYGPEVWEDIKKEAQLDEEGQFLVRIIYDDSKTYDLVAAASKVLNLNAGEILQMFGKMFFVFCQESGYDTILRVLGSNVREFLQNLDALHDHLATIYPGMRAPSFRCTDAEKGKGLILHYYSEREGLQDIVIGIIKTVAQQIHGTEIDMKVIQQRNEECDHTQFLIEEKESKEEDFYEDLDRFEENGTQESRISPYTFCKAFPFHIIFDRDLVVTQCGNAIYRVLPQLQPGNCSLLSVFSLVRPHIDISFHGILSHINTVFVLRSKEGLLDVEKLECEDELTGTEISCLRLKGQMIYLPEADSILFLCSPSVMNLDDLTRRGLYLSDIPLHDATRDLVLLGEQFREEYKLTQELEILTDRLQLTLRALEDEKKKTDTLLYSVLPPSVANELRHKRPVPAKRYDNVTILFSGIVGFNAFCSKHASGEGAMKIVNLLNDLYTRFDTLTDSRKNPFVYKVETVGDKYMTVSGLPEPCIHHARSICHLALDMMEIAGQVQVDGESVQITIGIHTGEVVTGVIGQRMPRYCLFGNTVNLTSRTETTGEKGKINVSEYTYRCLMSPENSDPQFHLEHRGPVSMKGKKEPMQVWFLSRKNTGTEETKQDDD
- PROCEDURE TEXT: sGC cellular activator assay (cGMP, HTRF)
- STUDY CONDITIONS: CHO cells stably expressing human sGC alpha 1/beta 1, preincubated with 40 microM ODQ; cGMP readout; assay run with and without 50% human serum, Table 2 does not say which
pEC50: −log10 of the molar value.
ASSAY METRIC: pEC50

- COMPOUND: "CCOc1c(C(=O)O)cnn1-c1cccc(-c2cccc(C)c2OCc2ccc3c(c2C)CCN(CC2CCOC(C)(C)C2)C3)n1 (stereo not drawn)"
  EXPERIMENTAL VALUE: 7.26
- COMPOUND: "COc1c(C(=O)O)cnn1-c1cccc(-c2cccc(C)c2OCc2ccc3c(c2)OCCN(C2CCOCC2)C3)n1"
  EXPERIMENTAL VALUE: 7.68

a. Cc1cccc(-c2cccc(-n3ncc(C(=O)O)c3OC(C)C)n2)c1OCc1ccc2c(c1)CCN(C(C)C)C2
b. COc1c(C(=O)O)cnn1-c1cccc(-c2cccc(C)c2OCc2ccc3c(c2)CCN(CC2CC2(F)F)C3)n1 (stereo not drawn)
Returns the identifier with the smallest measured pEC50 among a and b . Return value: the label identifying the chosen record. a

P. CCOc1c(C(=O)O)cnn1-c1cccc(-c2cccc(C)c2OCc2ccc3c(c2)CCN(C2CCOCC2)C3)n1
Q. CCOc1c(C(=O)O)cnn1-c1cccc(-c2cccc(C)c2OCc2cc(C)c3c(c2)CCN(C2CCOCC2)C3)n1
R. COc1c(C(=O)O)cnn1-c1cccc(-c2ccc(C)cc2OCc2ccc3c(c2C)CCN(C2CCOCC2)C3)n1
S. CCOc1c(C(=O)O)cnn1-c1cccc(-c2cccc(C)c2OCc2ccc3c(c2C)CCN(C2CCOCC2)C3=O)n1
T. CCOc1c(C(=O)O)cnn1-c1cccc(-c2cccc(Cl)c2OCc2ccc3c(c2)CCN(C(C)CO)C3)n1 (stereo not drawn)
Ascending sort, pEC50. Lab note: final answer is the ordered label list. T, R, S, P, Q
(T: 6.09, R: 6.80, S: 7.06, P: 7.51, Q: 7.89)

1. CCOc1c(C(=O)O)cnn1-c1cccc(-c2cccc(C)c2OCc2ccc3c(c2C)CCN(C[C@H]2CCO2)CC3)n1
2. COc1c(C(=O)O)cnn1-c1cccc(-c2cccc(C)c2OCc2ccc3c(c2)CCN(CC2COCCO2)C3)n1 (stereo not drawn)
3. COc1c(C(=O)O)cnn1-c1cccc(-c2cccc(C)c2OCc2cc(C)c3c(c2C)CN(S(=O)(=O)c2ccc(C)cc2)C3)n1
4. COc1c(C(=O)O)cnn1-c1cccc(-c2cccc(C)c2OCc2ccc3c(c2C)CCN(C[C@@H]2CCCCO2)C3)n1
5. CCOc1c(C(=O)O)cnn1-c1cccc(-c2cccc(C)c2OCc2ccc3c(c2)CCN(C2CCOC(C)(C)C2)C3)n1 (stereo not drawn)
// ranking: key=pEC50, reverse=True Lab note: final answer is the ordered label list. 4, 1, 2, 3, 5
(4: 8.28, 1: 7.92, 2: 7.70, 3: 7.27, 5: 6.96)

P. COc1c(C(=O)O)cnn1-c1cccc(-c2cccc(C)c2OCc2ccc3c(c2C)CCN(CC2(C)COC2)C3)n1
Q. COc1c(C(=O)O)cnn1-c1cccc(-c2cccc(C)c2OCc2ccc3c(c2Cl)CCN(C2CCOCC2)C3)n1
R. COc1c(C(=O)O)cnn1-c1cccc(-c2cccc(C)c2OCc2ccc3c(c2C)CCN(C2COC2)C3)n1
Ascending sort, pEC50. Lab note: final answer is the ordered label list. R, P, Q
(R: 7.64, P: 7.89, Q: 8.10)

I. Cc1cccc(-c2cccc(-n3ncc(C(=O)O)c3OC(C)C)n2)c1OCc1ccc2c(c1)CCN([C@@H]1CCCOC1)C2
II. COc1c(C(=O)O)cnn1-c1cccc(-c2cccc(C)c2OCc2ccc3c(c2C)CCN(C2CCOCC2)C3)n1
Returns the identifier with the smallest measured pEC50 among I and II . Return value: the label identifying the chosen record. I
(I: 7.62, II: 7.85)

P. COc1c(C(=O)O)cnn1-c1cccc(-c2cccc(C)c2OCc2ccc3c(c2)CCN(CC(F)(F)F)C3)n1
Q. COc1c(C(=O)O)cnn1-c1cccc(-c2cccc(C)c2OCc2ccc3c(c2F)CCN([C@@H]2CCOC2)C3)n1
R. COc1c(C(=O)O)cnn1-c1cccc(-c2cccc(C(F)(F)F)c2OCc2ccc3c(c2)CN(C2CCOCC2)C3)n1
// ranking: key=pEC50, reverse=True Lab note: final answer is the ordered label list. Q, P, R

a. COc1c(C(=O)O)cnn1-c1cccc(-c2cccc(C)c2OCc2ccc3c(c2C)CCN(C2CCOCC2)CC3)n1
b. COc1c(C(=O)O)cnn1-c1cccc(-c2cc(C)cc(C)c2OCc2ccc3c(c2)CCN(C2CCOCC2)C3)n1
Two entries are listed, a and b . Which one carries the higher pEC50? Return value: the label identifying the chosen record. a
(a: 7.92, b: 7.21)

1. COCCOc1c(C(=O)O)cnn1-c1cccc(-c2cccc(C)c2OCc2ccc3c(c2C)CCN(C2CCOCC2)C3)n1
2. CCOc1c(C(=O)O)cnn1-c1cccc(-c2cccc(C)c2OCc2ccc3c(c2C)CCN([C@@H]2CCOC2)C3)n1
3. COc1c(C(=O)O)cnn1-c1cccc(-c2cccc(C)c2OCc2ccc3c(c2)CCN(C2CCC(F)(F)CC2)C3)n1
// ranking: key=pEC50, reverse=True Lab note: final answer is the ordered label list. 3, 2, 1
